Entry source: the supplement of paper PMC5412046

Please respond with reported AC50 for growth inhibition (log10 M) for every item in the list.
tested on: SB.msgc-1; assay: AC50 for growth inhibition (viability) (log10 M); higher = less potent; conditions: SB.msgc-1 (sporadic gastric cancer)
Counter-ions that a name gives are not always drawn.
Answers are plain numbers.

{"MOLECULE": "Cc1[nH]c2ccccc2c1CCNCc1ccc(/C=C/C(=O)NO)cc1 [Panobinostat]", "MEASURED_PROPERTY": "AC50 for growth inhibition (log10 M)", "QUANTITATIVE_READOUT": -6.98}
{"MOLECULE": "C=CC(=O)N1CCC[C@@H](n2nc(-c3ccc(Oc4ccccc4)cc3)c3c(N)ncnc32)C1", "MEASURED_PROPERTY": "AC50 for growth inhibition (log10 M)", "QUANTITATIVE_READOUT": -7.48}
{"MOLECULE": "COC1=CC=C2[C@H]3CC[C@]4(C)[C@H](CC[C@H]4[C@@H]3CCC2=C1)NCCCCCCN5C(=O)\\C=C/C5=O", "MEASURED_PROPERTY": "AC50 for growth inhibition (log10 M)", "QUANTITATIVE_READOUT": -4.73}
{"MOLECULE": "O=C1[C@H](Cc2ccc(O)cc2)N2C(=O)CCN(C(=O)NCc3ccccc3)[C@H]2CN1Cc1cccc2ccccc12 [ICG-001]", "MEASURED_PROPERTY": "AC50 for growth inhibition (log10 M)", "QUANTITATIVE_READOUT": -4.88}
{"MOLECULE": "COc1cc2ncn(-c3cc(OCc4ccccc4C(F)(F)F)c(C(N)=O)s3)c2cc1OC", "MEASURED_PROPERTY": "AC50 for growth inhibition (log10 M)", "QUANTITATIVE_READOUT": -5.63}
{"MOLECULE": "O=C1CSC(=O)N1C(CCc1ccncc1)COc1ccc(-c2cccc([N+](=O)[O-])c2)cc1 (configuration not stated)", "MEASURED_PROPERTY": "AC50 for growth inhibition (log10 M)", "QUANTITATIVE_READOUT": -5.78}

Please go through the list and note AC50 for growth inhibition (log10 M) for each molecule.
1. Cc1ccc(C(=O)c2cc(O)c(O)c([N+](=O)[O-])c2)cc1 [Tolcapone]
2. NC1(C(=O)N[C@@H](CCO)c2ccc(Cl)cc2)CCN(c2ncnc3[nH]ccc23)CC1 [AZD-5363]

Response given:
1. -4.68
2. -5.08

Please go through the list and note AC50 for growth inhibition (log10 M) for each molecule.
1. COc1cccc2c1C(=O)c1c(O)c3c(c(O)c1C2=O)C[C@@](O)(C(=O)CO)C[C@@H]3O[C@H]1C[C@H](N)[C@H](O)[C@H](C)O1 [Doxorubicin]
2. NC12CC3CC(CC(C3)C1)C2 [Amantadine hydrochloride]
3. O=C(Nc1nc2ccccc2n1CCN1CCOCC1)c1cccc([N+](=O)[O-])c1
4. N=C(N)c1ccc(OCCCCCOc2ccc(C(=N)N)cc2)cc1 [Pentamidine isethionate]
5. CC(C)(C)c1cnc(CSc2cnc(NC(=O)C3CCNCC3)s2)o1 [SNS-032]
6. CCCCCN(CCC12CC3CC(CC(C3)C1)C2)C(=O)NCCCc1ccncc1 [DE-096]

Response given:
[-6.43, -4.68, -4.83, -4.83, -7.18, -4.73]

Please go through the list and note AC50 for growth inhibition (log10 M) for each molecule.
1. CC(=O)Oc1cc2c(s1)CCN(C(C(=O)C1CC1)c1ccccc1F)C2.Cl (configuration not stated) [Prasugrel]
2. Clc3cc4CCc1cccnc1C(=C2/CCN(CC2)C(=O)OCC)\c4cc3 [Loratadine]
3. Cc1c(Cn2c(C)nc3c(C(=O)O)cc(N4CCOCC4)cc32)cccc1C(F)(F)F

Response given:
1. -6.08
2. -4.73
3. -5.88

----------
tested on: SB.msgc-1; experiment: AC50 for growth inhibition (viability) (log10 M); higher = less potent; conditions: SB.msgc-1 (sporadic gastric cancer)
MEASURED_PROPERTY: AC50 for growth inhibition (log10 M)
One number for each entry.

{"COMPOUND": "CCN(CC)CCCCNc1nc2cc(Cl)c(Cl)cc2nc1-c1ccc(-c2cccs2)s1", "AC50 for growth inhibition (log10 M)": -4.68}
{"COMPOUND": "Cc1ccc(NC(=O)c2ccc(CN3CCN(C)CC3)cc2)cc1Nc1nc(-c2cccnc2)cs1 [Masitinib]", "AC50 for growth inhibition (log10 M)": -4.93}
{"COMPOUND": "COc1ccc(CCC(=O)c2c(O)cc(O[C@@H]3O[C@H](CO)[C@@H](O)[C@H](O)[C@H]3O[C@@H]3O[C@@H](C)[C@H](O)[C@@H](O)[C@H]3O)cc2O)cc1O [Neohesperidin dihydrochalcone]", "AC50 for growth inhibition (log10 M)": -5.18}

Please go through the list and note AC50 for growth inhibition (log10 M) for each compound.
1. CC1(C)Cc2c(-c3ccccc3)c(-c3ccc(Cl)cc3)c(CC(=O)O)n2C1 [Licofelone]
2. O=C(Nc1ncc(SCCN2CCCC2)s1)[C@]1(c2ccc([S+](=O)([O-])C3CC3)cc2)C[C@H]1C1CCCCC1
3. CN(CC(=O)N(Cc1ccc(C2CCCCC2)cc1)c1ccc(C(=O)O)c(O)c1)[S+](=O)([O-])c1c(F)c(F)c(F)c(F)c1F [BP-1-102]

Response given:
-4.73
-4.78
-4.73

----------
system: SB.mhdgc-1; assay: area under the dose-response curve of % viability (trapezoidal, 11 doses) (% viability x log10 concentration); higher = less cytotoxic; conditions: SB.mhdgc-1 (hereditary c.1380delA CDH1 gastric cancer)
Please respond with reported area under the dose-response curve for every item in the list.

{"COMPOUND": "CNC(=O)c1ccc(Nc2cc(Nc3ccccc3[S+](=O)([O-])C(C)C)c3cc[nH]c3n2)nc1 (top concentration 46.0829 µM)", "RESULT": 517}

Consider the record given below.
Challenge: Indicate the recorded area under the dose-response curve value for this compound: CC(=O)O[C@H]1C(=O)[C@]2(C)[C@@H](O)C[C@H]3OC[C@@]3(OC(C)=O)C2[C@H](OC(=O)C4=CC=CC=C4)[C@]5(O)C[C@H](OC(=O)[C@H](O)[C@@H](NC(=O)C6=CC=CC=C6)C7=CC=CC=C7)\C(=C1/C5(C)C)C (some centres not stated) [Paclitaxel] (top concentration 46.0829 µM)
Response given: 297

----------
Please respond with reported viability for every item in the list.
test system: SB.mhdgc-1; test: viability at highest tested concentration (MAXR) relative to DMSO; higher = less cytotoxic; conditions: SB.mhdgc-1 (hereditary c.1380delA CDH1 gastric cancer)
Counter-ions that a name gives are not always drawn.
Give bare numbers, in %.

Recorded viability, per entry:
{"MOLECULE": "CC(NCc1ccc2c(c1)[nH]/c(=N\\C(=O)c1ccc(-c3cn[nH]c3)s1)n2CC(C)(C)O)C(C)(C)C (stereo not given) (top concentration 46.0829 µM)", "U": "%", "viability": 1.16}
{"MOLECULE": "OC1=CC=C(C=C1)C/2=C/C3=C(OC2)C=C(O)C=C3 [Idronoxil] (top concentration 46.0829 µM)", "U": "%", "viability": 87.5}
{"MOLECULE": "N[C@@H](C(=O)N[C@H]1[C@H]2SC\\C(=C(/N2C1=O)C(O)=O)Cl)C3=CC=CC=C3 [Cefaclor] (top concentration 46.0829 µM)", "U": "%", "viability": 169}

Please go through the list and note viability for each molecule.
1. C=CC(=O)Nc1cccc(Nc2nc(NC3CCC(N(C)C)CC3)nc3c2ncn3C(C)C)c1 (stereo not given) (top concentration 46.0829 µM)
2. O=C(NCC1CN(c2ccc(N3CCOCC3=O)cc2)C(=O)O1)c1ccc(Cl)s1 (stereo not given) [Rivaroxaban] (top concentration 46.0829 µM)
3. OC1=C(O)C2=C(\C=C/C(=O)O2)C=C1 [Daphnetin] (top concentration 46.0829 µM)
4. COc1cc(/C=C/C(=O)O)ccc1O [Fumalic acid] (top concentration 46.0829 µM)
5. C[C@H](c1ccc(F)cc1CCCC(=O)O)N(c1cc(F)ccc1F)[S+](=O)([O-])c1ccc(Cl)cc1 (top concentration 46.0829 µM)
6. C=CCc1cccc(/C=N/NC(=O)CN2CCN(Cc3ccccc3)CC2)c1O [PAC-1] (top concentration 46.0829 µM)
7. CN1C2CCC1CC(OC(=O)C(CO)c1ccccc1)C2 (stereo not given) [Atropine] (top concentration 46.0829 µM)

Response given:
1. 2.91
2. 113
3. 72.2
4. 112
5. 40.2
6. 13.1
7. 92

Please go through the list and note viability for each molecule.
1. COC(=O)N[C@H](C(=O)N1CCC[C@H]1c1ncc(-c2ccc(-c3ccc(-c4cnc([C@@H]5CCCN5C(=O)[C@@H](NC(=O)OC)C(C)C)[nH]4)cc3)cc2)[nH]1)C(C)C [Daclatasvir dihydrochloride] (top concentration 46.0829 µM)
2. NC(=O)c1cccc(-c2cc(Nc3ccc(OC(F)(F)F)cc3)ncn2)c1 [GNF 2] (top concentration 46.0829 µM)

Response given:
3.05
68.4

Please go through the list and note viability for each molecule.
1. CC(=O)Oc1ccccc1C(=O)O [Aspirin] (top concentration 46.0829 µM)
2. CC(C)C[C@H](NC(=O)CNC(=O)c1cc(Cl)ccc1Cl)B1OC(=O)CC(CC(=O)O)(C(=O)O)O1 (stereo not given in full) [Ixazomib citrate] (top concentration 46.0829 µM)

Response given:
1. 11.5
2. 2.64

Please go through the list and note viability for each molecule.
1. Nc1ccc(C(=O)Nc2cccc(-c3nc(N4CCOCC4)c4oc5ncccc5c4n3)c2)cn1 (top concentration 46.0829 µM)
2. COc1ccc2c(c1OC)CN1CCc3cc4c(cc3C1C2)OCO4 (stereo not given) [Tetrahydroberberine Canadine] (top concentration 46.0829 µM)
3. COc1cc(Nc2ncc(F)c(Nc3ccc4c(n3)N(COP(=O)(O)O)C(=O)C(C)(C)O4)n2)cc(OC)c1OC [Fostamatinib disodium] (top concentration 46.0829 µM)
4. CC(C)(C)c1cnc(CSc2cnc(NC(=O)C3CCNCC3)s2)o1 [SNS-032] (top concentration 46.0829 µM)
5. NC(=O)c1ccc2[nH]ccc2c1 [SD-169] (top concentration 46.0829 µM)
6. O=C1c2c(O)cc(O)cc2O[C@H](c2cc(O)c(O)c(O)c2)[C@H]1O [Dihydromyricetin] (top concentration 46.0829 µM)
7. COc1ccc(Nc2cc(-c3cnc(N)nc3)nc(N3CCOCC3)n2)cn1 [NIBR-17] (top concentration 46.0829 µM)

Response given:
1. 17.6
2. 72.5
3. 6.16
4. 43.2
5. 96.9
6. 19.1
7. 37

Please go through the list and note viability for each molecule.
1. COC(=O)[C@@H](N)CCCNC(=N)N[N+](=O)[O-] [L-NAME] (top concentration 46.0829 µM)
2. Cc1cc(O)c2c3c4c(cc(O)c13)C(C)(C)C(=O)c1c(O)cc(O)c(c1-4)C2=O [Resistomycin] (top concentration 46.0829 µM)
3. Nc1ncnc2ccccc12 [4-Quinazolinamine] (top concentration 46.0829 µM)
4. CCCCCCNC(=O)N1\C=C(F)/C(=O)NC1=O [Carmofur] (top concentration 46.0829 µM)

Response given:
[21.9, 9.08, 66.4, 47.9]
